meta.source: paper PMC6881293

Target Or Test System: Q1313X-CFTR (Homo sapiens, UniProt P13569)
Construct: expressed in transfected cells
Sequence (P13569 1-1312 limits assumed): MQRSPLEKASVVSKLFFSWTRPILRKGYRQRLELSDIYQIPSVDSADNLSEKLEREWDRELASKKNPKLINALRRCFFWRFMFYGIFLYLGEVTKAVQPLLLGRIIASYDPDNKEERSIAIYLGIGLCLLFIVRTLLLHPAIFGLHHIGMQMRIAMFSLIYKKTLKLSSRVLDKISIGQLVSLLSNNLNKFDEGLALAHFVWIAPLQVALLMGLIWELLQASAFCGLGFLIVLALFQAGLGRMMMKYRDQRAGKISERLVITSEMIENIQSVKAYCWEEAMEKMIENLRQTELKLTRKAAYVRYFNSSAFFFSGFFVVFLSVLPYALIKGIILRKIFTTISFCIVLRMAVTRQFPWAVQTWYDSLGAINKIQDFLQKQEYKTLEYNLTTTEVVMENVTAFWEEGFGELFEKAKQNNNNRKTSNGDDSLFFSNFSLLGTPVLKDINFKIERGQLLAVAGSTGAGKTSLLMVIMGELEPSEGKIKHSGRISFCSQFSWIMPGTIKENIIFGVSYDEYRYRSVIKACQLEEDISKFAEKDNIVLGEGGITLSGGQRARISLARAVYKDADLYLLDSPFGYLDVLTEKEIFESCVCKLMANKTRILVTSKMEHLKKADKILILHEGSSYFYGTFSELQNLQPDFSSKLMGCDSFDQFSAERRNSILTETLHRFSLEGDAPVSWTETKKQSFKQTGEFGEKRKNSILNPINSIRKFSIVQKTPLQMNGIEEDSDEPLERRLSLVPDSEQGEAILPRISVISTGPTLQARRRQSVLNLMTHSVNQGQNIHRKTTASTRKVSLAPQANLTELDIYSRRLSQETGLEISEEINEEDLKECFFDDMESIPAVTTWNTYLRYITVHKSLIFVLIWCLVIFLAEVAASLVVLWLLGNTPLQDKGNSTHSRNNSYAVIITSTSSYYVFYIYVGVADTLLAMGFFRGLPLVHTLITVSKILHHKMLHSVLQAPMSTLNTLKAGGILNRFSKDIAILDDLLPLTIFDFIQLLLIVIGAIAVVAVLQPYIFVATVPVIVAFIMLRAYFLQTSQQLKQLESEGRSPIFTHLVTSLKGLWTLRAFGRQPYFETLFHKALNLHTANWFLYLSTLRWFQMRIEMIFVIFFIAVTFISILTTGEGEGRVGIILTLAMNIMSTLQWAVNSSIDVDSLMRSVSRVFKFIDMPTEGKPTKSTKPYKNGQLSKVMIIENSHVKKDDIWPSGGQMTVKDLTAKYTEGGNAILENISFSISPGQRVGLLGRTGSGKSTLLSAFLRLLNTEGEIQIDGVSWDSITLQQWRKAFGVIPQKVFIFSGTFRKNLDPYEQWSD
Assay Info: Short-circuit current in FRT cells expressing Q1313X-CFTR
Format: cell-based
Settings: FRT cells expressing Q1313X-CFTR; after 20 µM forskolin and 5 µM VX-770
Endpoint Name: pEC50
Friendly reminder that pEC50 comes from taking -log10 of the concentration in mol/L.

Assign pEC50 to the following record: COc1ccc2[nH]c3c(c2c1)CCNC31CCN(Cc2ccc(F)cc2F)CC1
5.30

###

Target Or Test System: W1282X-CFTR (Homo sapiens)
Construct: expressed in transfected cells
Assay Info: Structure-activity testing of analogs in FRT cells expressing W1282X-CFTR
Type: cell-based
Settings: Table 1, piperidine-pyridoindole analogs
Consider the following compounds and their measured EC50 readings.
Express it in µM; write the number only.

compound="COc1ccc2[nH]c3c(c2c1)CCNC31CCN(Cc2ccc(F)cc2F)CC1 [Compound A061]" unit_abbrev=µM measured=2

Kindly consider the entry below.
Indicate its recorded EC50; the compound in question is COc1cccc(CN2CCC3(CC2)NCCc2c3[nH]c3ccc(OC)cc23)c1 [Compound A01]
10

###

Target Or Test System: W1282X-CFTR (Homo sapiens, UniProt P13569)
Construct: expressed in transfected cells
Sequence (P13569 1-1281 limits assumed): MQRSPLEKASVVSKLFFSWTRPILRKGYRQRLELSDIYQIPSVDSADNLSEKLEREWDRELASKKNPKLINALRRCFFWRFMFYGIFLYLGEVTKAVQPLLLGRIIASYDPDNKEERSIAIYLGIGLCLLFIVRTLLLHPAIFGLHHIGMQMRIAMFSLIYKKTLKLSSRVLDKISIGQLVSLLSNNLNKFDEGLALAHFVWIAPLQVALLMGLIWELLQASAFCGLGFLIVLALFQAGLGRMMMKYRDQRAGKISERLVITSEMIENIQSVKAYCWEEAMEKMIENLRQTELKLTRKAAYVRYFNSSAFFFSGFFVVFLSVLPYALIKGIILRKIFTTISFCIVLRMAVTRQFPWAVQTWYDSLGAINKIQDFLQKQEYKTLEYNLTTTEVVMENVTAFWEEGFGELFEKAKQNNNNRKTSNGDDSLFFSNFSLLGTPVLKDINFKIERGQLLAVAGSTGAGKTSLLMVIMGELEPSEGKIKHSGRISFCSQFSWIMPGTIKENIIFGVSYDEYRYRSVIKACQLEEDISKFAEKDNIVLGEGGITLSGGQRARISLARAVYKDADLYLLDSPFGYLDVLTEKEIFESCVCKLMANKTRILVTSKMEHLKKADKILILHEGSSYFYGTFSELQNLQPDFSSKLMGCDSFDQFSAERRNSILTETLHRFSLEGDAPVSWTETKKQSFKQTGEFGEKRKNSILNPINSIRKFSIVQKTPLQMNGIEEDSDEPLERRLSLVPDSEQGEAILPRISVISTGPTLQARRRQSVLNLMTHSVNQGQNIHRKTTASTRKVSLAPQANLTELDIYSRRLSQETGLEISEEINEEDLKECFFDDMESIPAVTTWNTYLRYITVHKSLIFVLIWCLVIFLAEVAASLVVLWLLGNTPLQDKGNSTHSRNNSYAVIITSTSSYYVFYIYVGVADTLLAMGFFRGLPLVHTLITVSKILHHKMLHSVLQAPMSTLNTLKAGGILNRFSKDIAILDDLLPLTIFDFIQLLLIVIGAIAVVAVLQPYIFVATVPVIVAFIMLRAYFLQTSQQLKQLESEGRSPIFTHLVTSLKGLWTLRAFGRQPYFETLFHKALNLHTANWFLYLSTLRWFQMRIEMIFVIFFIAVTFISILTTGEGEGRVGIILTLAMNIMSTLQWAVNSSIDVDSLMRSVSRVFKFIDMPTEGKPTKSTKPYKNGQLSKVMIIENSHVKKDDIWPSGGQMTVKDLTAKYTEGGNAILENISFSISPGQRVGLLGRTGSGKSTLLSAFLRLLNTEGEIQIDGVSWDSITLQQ
Assay Info: Short-circuit current in FRT cells expressing W1282X-CFTR
Type: cell-based
Settings: VX-809-corrected W1282X-CFTR-expressing FRT cells, in the presence of forskolin and 5 μM VX-770
Endpoint Name: pEC50
# reply with the number alone; pEC50 is -log10 of concentration in mol/L

Some entries whose results are on file:
smiles_text=COc1cccc(CN2CCC3(CC2)NCCc2c3[nH]c3ccc(OC)cc23)c1 endpoint_name=pEC50 measured=5.00
smiles_text=CCCS(=O)(=O)N1CCCc2ccc(NS(=O)(=O)c3cccs3)cc21 endpoint_name=pEC50 measured=5.10
smiles_text=COc1ccc2cc3c(N)nn(C(=O)c4ccccc4Cl)c3nc2c1 endpoint_name=pEC50 measured=4.82

# next compound below
Return pEC50 for the following compound: O=C(CN1C(=O)CC(c2cccs2)=Nc2ccccc21)NCc1ccc(Cl)cc1
5.30

###

Target Or Test System: Q1313X-CFTR (Homo sapiens)
Construct: expressed in transfected cells
Assay Info: Short-circuit current in FRT cells expressing Q1313X-CFTR
Type: cell-based
Settings: Q1313X-CFTR FRT cells; 20 μM forskolin, 5 μM VX-770; 20 μM P2, P3, P5, ASP-11; 25 μM apigenin
Endpoint Name: short-circuit current response when added after VX-770

molecule="CCN(c1ccccc1)S(=O)(=O)c1ccc2[nH]cc(C(=O)NCc3ccccc3OC)c(=O)c2c1 [Compound P3]" measured="did not elevate current"
molecule="CC(C)c1ccc(NC(=O)C(c2ccccc2)N(C)C(=O)Cc2c[nH]c3ccccc23)cc1 (stereo not shown) [Compound P2]" measured="did not elevate current"
molecule="NC(=O)c1c(NC(=O)c2ccccc2Cl)sc2c1CCCC2 [Compound P5]" measured="did not elevate current"

###

Target Or Test System: W1282X-CFTR (Homo sapiens, UniProt P13569)
Construct: expressed in transfected cells
Assay Info: Structure-activity testing of analogs in FRT cells expressing W1282X-CFTR
Format: cell-based
Settings: Table 1, piperidine-pyridoindole analogs
Form field: pEC50 (one value per entry).
Keep it numeric: pEC50 is minus log10 of the concentration in mol/L.

Some entries whose results are on file:
smiles_text=COc1cccc(CN2CCC3(CC2)NCCc2c3[nH]c3ccccc23)c1 measured=4.89
smiles_text=COc1ccc2[nH]c3c(c2c1)CCNC31CCN(Cc2ccc(F)c(F)c2)CC1 measured=5.59

Here is the next item to consider.
Please give measured pEC50 of the following entry: c1ccc(CN2CCC3(CC2)NCCc2c3[nH]c3ccccc23)cc1
4.80

###

Target Or Test System: W1282X-CFTR (Homo sapiens)
Construct: expressed in transfected cells
Assay Info: Structure-activity testing of analogs in FRT cells expressing W1282X-CFTR
Format: cell-based
Settings: Table 1, 100% Vmax corresponds to 20 μM ASP-11
Endpoint Name: Relative Vmax (%)
Output spec: scalar in %, unitless text.

Solved entries:
smiles_text=COc1ccc2[nH]c3c(c2c1)CCNC31CCN(S(C)(=O)=O)CC1 target_or_test_system="W1282X-CFTR (Homo sapiens)" measured=7
smiles_text=COc1ccc2[nH]c3c(c2c1)CCNC31CCN(Cc2ccc(F)cc2F)CC1 target_or_test_system="W1282X-CFTR (Homo sapiens)" measured=100
smiles_text=COc1ccc2[nH]c3c(c2c1)CCNC31CCN(Cc2ccc(F)c(F)c2)CC1 target_or_test_system="W1282X-CFTR (Homo sapiens)" measured=100

Given COc1cccc(CN2CCC3(CC2)NCCc2c3[nH]c3ccccc23)c1 , respond with its Relative Vmax (%).
24

Please report Relative Vmax (%) for the following compound: COc1ccc2[nH]c3c(c2c1)CCNC31CCN(C2CCCCC2)CC1
18

Return the recorded Relative Vmax (%) value; entry: COc1cccc(CN2CCC3(CC2)NCCc2c3[nH]c3ccc(OC)cc23)c1
100

###

Target Or Test System: W1282X-CFTR (Homo sapiens, UniProt P13569)
Construct: expressed in transfected cells
Assay Info: Structure-activity testing of analogs in FRT cells expressing W1282X-CFTR
Type: cell-based
Settings: Table 2, pyrazoloquinoline analogs
Experimental: To establish structure-activity relationships, 240 commercially available piperidinepyridoindole analogs and 160 pyrazoloquinoline analogs were tested in FRT cells expressing W1282X-CFTR. In general, the methoxy substituent on the 4-position (R^3) on the pyridoindole ring increased potency (compare A01 vs A534). N-methylation on the pyridoindole ring abolished activity (compare A534 vs A600). For substituent R^1 on the piperidine ring, substituted benzyl gave greatest activity (A061 and A662). […]
Endpoint Name: EC50
Answer with the figure and its unit, nothing else.

State its EC50: COc1ccc2cc3c(N)nn(C(=O)c4ccccc4Cl)c3nc2c1 [Compound D001]
15 µM

###

Target Or Test System: W1282X-CFTR (Homo sapiens, UniProt P13569)
Construct: expressed in transfected cells
Assay Info: Structure-activity testing of analogs in FRT cells expressing W1282X-CFTR
Type: cell-based
Settings: Table 1, piperidine-pyridoindole analogs
pEC50: −log10 of the molar value.
pEC50 reference

Field: example entries. Status: answers known.
smiles_text=COc1ccc2[nH]c3c(c2c1)CCNC31CCN(C)CC1 measured="< 4.52"
smiles_text=COc1ccc2[nH]c3c(c2c1)CCNC31CCN(C2CCCCC2)CC1 measured="< 4.52"

Here's the next entry for you.
Specify pEC50 for COc1cccc(CN2CCC3(CC2)c2[nH]c4ccccc4c2CCN3C)c1 , system W1282X-CFTR (Homo sapiens, UniProt P13569).
< 4.52

###

Target Or Test System: W1282X-CFTR (Homo sapiens)
Construct: expressed in transfected cells
Assay Info: Structure-activity testing of analogs in FRT cells expressing W1282X-CFTR
Type: cell-based
Settings: Table 1, 100% Vmax corresponds to 20 μM ASP-11
Endpoint Name: Relative Vmax (%)
# number then unit; no other words

Below are worked cases with known answers.
compound="c1ccc(CN2CCC3(CC2)NCCc2c3[nH]c3ccccc23)cc1 [Compound A357]" endpoint_name="Relative Vmax (%)" measured=31%
compound="COc1ccc2[nH]c3c(c2c1)CCNC31CCN(C)CC1 [Compound A764]" endpoint_name="Relative Vmax (%)" measured=6%

Find Relative Vmax (%) for COc1cccc(CN2CCC3(CC2)c2[nH]c4ccccc4c2CCN3C)c1 [Compound A600] on W1282X-CFTR (Homo sapiens) and write it down.
4%
